TGI overview
Tested on: CCRF-CEM leukemia
Experiment: NCI tumour cell line growth inhibition, 48 h

{"columns": ["compound", "measured.target", "result.qualifier", "TGI, µM"],
 "data": [
  ["COC(=O)C1=C([C@H]2COC(C)(C)O2)[C@H]2C[C@@H]1[C@@H]1OC(C)(C)O[C@@H]12", "CCRF-CEM leukemia", ">", 100],
  ["C=C(C)C(=O)OC1C(C(C)CCCO)=C(CO)CC2OC(=O)C(=C)C21 (stereo not given)", "CCRF-CEM leukemia", ">", 100],
  ["CC1(C)C(=O)N(O)C(C)(C)N1N=O", "CCRF-CEM leukemia", ">", 10],
  ["COc1cc2cn3c4ccc(O)cc4nc(N)c3c2cc1OC", "CCRF-CEM leukemia", "=", 7.58],
  ["CCCCCCCCCCCCOC1C(CNCC2OC3OC(C)(C)OC3C2NC(=O)Nc2ccc(C(F)(F)F)cc2)OC2OC(C)(C)OC21 (stereo not given)", "CCRF-CEM leukemia", "=", 12.5]
]}

====

Test system: SF-295 CNS
Experiment: NCI tumour cell line growth inhibition, 48 h
result.type: TGI

{"columns": ["compound", "reported.value"],
 "data": [
  ["Cc1cc(C(=O)N[C@@H](CCC(=O)O)C(=O)O)sc1CC[C@@H]1CNc2nc(N)[nH]c(=O)c2C1", "> 100 µM"],
  ["O=[N+]([O-])c1cc2c(cc1O)[nH]c1cccc([N+](=O)[O-])c12", "> 100 µM"],
  ["CC(=O)/C=C(/C=N/O)c1ccccc1", "> 100 µM"],
  ["COc1ccc2nc3ccccc3c(NCCCCCN(CCCl)CCCl)c2c1", "1.21 µM"],
  ["CCCCCCCCCCCCC/C=C1\\C[C@H](O)COC1=O", "33 µM"],
  ["Cc1cc(Cl)ccc1NC(=O)C(=O)Cc1ccc([N+](=O)[O-])c([N+](=O)[O-])c1CC(=O)C(=O)Nc1ccc(Cl)cc1C", "> 100 µM"],
  ["COc1ccc2c(c1)CC[C@@H]1[C@@H]2CC[C@]2(C)c3[nH]ncc3C[C@@H]12", "27.5 µM"],
  ["COc1cc(/C=C/C(=O)NC[C@]2(O)CCC3C4CCc5cc(O)ccc5C4CCC32C)ccc1O (stereo partly drawn)", "> 100 µM"],
  ["COc1cc(/C=C2\\CCCC3C2=Nc2ccccc2NC3c2cc(OC)c(OC)c(OC)c2)cc(OC)c1OC (stereo not drawn)", "> 100 µM"],
  ["O=S(=O)(O)c1cc(N=Nc2cc(S(=O)(=O)O)c3ccccc3c2O)ccc1/C=C/c1ccc(N=Nc2cc(S(=O)(=O)O)c3ccccc3c2O)cc1S(=O)(=O)O", "> 731 µM"],
  ["CCOC(=O)NC(Nc1ccc(F)c(F)c1)(C(=O)OCC)C(F)(F)F (stereo not drawn)", "> 100 µM"],
  ["CCN=C=NCCCN(C)C", "> 100 µM"],
  ["Cc1ccc(/C=N/Nc2cc(C)c3ccccc3n2)s1", "32 µM"],
  ["C[N+]1(C)CCOC(O)(c2ccccc2)C1 (stereo not drawn)", "> 100 µM"],
  ["C=C1C(=O)CCC1C(=O)O (stereo not drawn)", "> 100 µM"],
  ["COc1ccc(OC)c(/C=C/C(=O)C(C)(C)C)c1", "67.4 µM"],
  ["O=C(c1ccco1)c1ccccc1C(=O)c1ccco1", "> 100 µM"],
  ["CCc1cccc(CC)c1Nc1nc2c(s1)C(=O)c1ccccc1C2=O", "27.8 µM"],
  ["OC(COc1cccc2ccccc12)CN1CCN(c2ccc(Cl)cc2)CC1 (stereo not drawn)", "36.9 µM"],
  ["COCOc1cc(OC)c(Br)cc1C/C(=N/O)C(=O)OC", "> 100 µM"],
  ["CC(=O)Nc1ccc(-c2nc3ccccc3s2)cc1Cl", "> 100 µM"],
  ["O=C(CCc1ccco1)NC1CCN(CC2(c3ccc(Cl)cc3)CCC2)CC1", "30.1 µM"],
  ["Cc1cc(S(=O)(=O)Nc2nc3ccccc3[nH]2)c(S)cc1Cl", "> 100 µM"],
  ["C/C(=C1/N=C(c2ccccc2)OC1=O)c1ccc(C)cc1", "> 100 µM"],
  ["Clc1ccccc1C1N2CCCCC2[C@@H]2c3[nH]c4ccccc4c3CCN12 (stereo partly drawn)", "58.9 µM"],
  ["OC1CSCCCSCCSCCCSC1", "> 100 µM"],
  ["Cc1c2cnccc2c(C)c2c1c1cc(C(=O)O)ccc1n2C", "6.65 µM"],
  ["COC(=O)/C(=N\\N)C(C(=O)C(=O)Nc1cccc([N+](=O)[O-])c1)c1nc2ccc(C(=O)c3ccccc3)cc2[nH]c1=O (stereo not drawn)", "> 100 µM"],
  ["O=[N+]([O-])c1cccc(/C=C/c2ccccn2)c1", "> 100 µM"],
  ["C/C=C/C(=O)[C@@H](O)C(C)C", "> 100 µM"],
  ["C=C(C)[C@@H]1CC[C@]2(C(=O)Nc3ccccn3)CC[C@]3(C)[C@H](CC[C@@H]4[C@@]5(C)CCCNC(C)(C)[C@@H]5CC[C@]43C)[C@@H]12", "3.07 µM"],
  ["COc1ccc2c(O)c(/C=C3\\N=Nc4ncccc43)oc2c1C[C@H]1CCNC[C@H]1F", "11.9 µM"],
  ["NC(=S)N/N=C1\\C(=O)N(CCc2ccccc2)C(=O)C1C(=O)NCCc1ccccc1 (stereo not drawn)", "> 100 µM"],
  ["Cc1nc2nn(Cc3ccccc3)cc2c(=O)o1", "> 100 µM"],
  ["COc1cc(/C=C/C=C2\\CCC/C(=C\\C=C\\c3ccc(O)c(OC)c3)C2=O)ccc1O", "27 µM"],
  ["CCOC(=O)c1ccc(NC(=O)O/N=C(/Cl)C(C)C)cc1", "34.8 µM"],
  ["CC(O)CCNC(=O)Nc1c(C(F)(F)F)cc(-c2ccccc2)[nH]c1=O (stereo not drawn)", "> 100 µM"],
  ["NC(N)=NCc1ccc2c(c1)OCO2", "> 100 µM"],
  ["CN(C)C(=S)/N=c1\\ssc(=S)n1-c1ccccc1", "46.6 µM"],
  ["C=CC[N+]1(CCO)CCN=C1CCCCCCCCCCCCC (stereo not drawn)", "3.3 µM"],
  ["Cc1ccc(/C=C/C(=O)C(C)C)cc1", "> 100 µM"],
  ["COc1cc(C2=C(C)[C@@H]3CN(CC=C3c3ccc(Cl)cc3)C2)c(S(=O)(=O)O)cc1OC", "> 100 µM"],
  ["c1ccc(CN2CCCN3CCN(CCCN(Cc4ccccc4)CC3)CC2)cc1", "> 100 µM"]
]}

====

Test system: CAKI-1 renal
Assay: NCI tumour cell line growth inhibition, 48 h

{"columns": ["compound", "GI50"],
 "data": [
  ["Cc1cc(Nc2cc(CN3CCOCC3)c3nc(C)c(Cc4ccc(Cl)cc4F)n3n2)n[nH]1", "1.74 µM"],
  ["COc1ccc(N2CCN(CN3CCN(c4ccc(OC)cc4)C3)C2)cc1", "> 100 µM"],
  ["NC(=O)c1ccc2nc(-c3ccc(C4(N)CCC4)cc3)c(-c3ccccc3)n2n1", "10.3 µM"],
  ["O=[N+]([O-])c1cccc(/C=C/c2ccccn2)c1", "34.5 µM"],
  ["CCc1nc(-n2c(CC)nc3ccccc3c2=O)nc(N)c1-c1ccc(Cl)cc1", "22.3 µM"],
  ["COc1cc2cn3c4ccc(O)cc4nc(N)c3c2cc1OC", "0.299 µM"],
  ["FC(F)(F)c1[nH]ncc1-c1nc2c(N3CCCCC3)cc3[nH]ncc3c2c2c1CCCC2", "0.711 µM"],
  ["Clc1nc(Cl)c2ncn(C/C=C/Cn3cnc4c(Cl)nc(Cl)nc43)c2n1", "13.9 µM"],
  ["OC(COc1cccc2ccccc12)CN1CCN(c2ccc(Cl)cc2)CC1 (stereo not given)", "5.8 µM"],
  ["CSC1=Nc2c(c(C)c(-c3ccccc3)n2CCCCl)C2=NC(=O)CN12", "4.6 µM"]
]}

====

System: OVCAR-4 ovarian
Assay: NCI tumour cell line growth inhibition, 48 h

{"columns": ["compound", "measured.target", "TGI"],
 "data": [
  ["COc1ccc([C@@H]2CC(=O)NCCCNCCCCNCCCN2)cc1", "OVCAR-4 ovarian", "> 100 µM"],
  ["CC(C)[C@H]1CO[C@@H]2O[C@H](C)CC(=O)N21", "OVCAR-4 ovarian", "> 100 µM"],
  ["CC1(C(=O)NCCN(CCNC(=O)C2(C)CC3(C)CC(C)(C2)C(=O)NC3=O)CCNC(=O)C2(C)CC3(C)CC(C)(C2)C(=O)NC3=O)CC2(C)CC(C)(C1)C(=O)NC2=O (stereo not given)", "OVCAR-4 ovarian", "> 100 µM"],
  ["N#CC(c1ccccc1)N(CCc1ccccc1)C(=O)c1ccccc1 (stereo not given)", "OVCAR-4 ovarian", "> 100 µM"],
  ["C=CC1(c2ccccc2Cl)N/C(=C/OCC)CO1 (stereo not given)", "OVCAR-4 ovarian", "> 100 µM"],
  ["Nc1c(S(=O)(=O)O)cc(Nc2cccc(S(N)(=O)=O)c2)c2c1C(=O)c1ccccc1C2=O", "OVCAR-4 ovarian", "> 100 µM"],
  ["O=C(Nc1ccc(Cl)cc1F)c1cc(F)ccc1O", "OVCAR-4 ovarian", "> 29.6 µM"],
  ["CCCCCCCCCCCCC/C=C1\\C[C@H](O)COC1=O", "OVCAR-4 ovarian", "32.7 µM"],
  ["c1ccc(CCCC2Sc3cccc4cccc(c34)S2)cc1", "OVCAR-4 ovarian", "> 100 µM"],
  ["Cc1cc(S(N)(=O)=O)c(S/C(=N\\Nc2ccc([N+](=O)[O-])cc2)c2ccc(O)cc2)cc1Cl", "OVCAR-4 ovarian", "7.94 µM"]
]}
